Where do the numbers come from? From patent US20260007684A1.

Study Target: human NLRP3 (Homo sapiens (Human))
Sequence (Q96P20 whole entry): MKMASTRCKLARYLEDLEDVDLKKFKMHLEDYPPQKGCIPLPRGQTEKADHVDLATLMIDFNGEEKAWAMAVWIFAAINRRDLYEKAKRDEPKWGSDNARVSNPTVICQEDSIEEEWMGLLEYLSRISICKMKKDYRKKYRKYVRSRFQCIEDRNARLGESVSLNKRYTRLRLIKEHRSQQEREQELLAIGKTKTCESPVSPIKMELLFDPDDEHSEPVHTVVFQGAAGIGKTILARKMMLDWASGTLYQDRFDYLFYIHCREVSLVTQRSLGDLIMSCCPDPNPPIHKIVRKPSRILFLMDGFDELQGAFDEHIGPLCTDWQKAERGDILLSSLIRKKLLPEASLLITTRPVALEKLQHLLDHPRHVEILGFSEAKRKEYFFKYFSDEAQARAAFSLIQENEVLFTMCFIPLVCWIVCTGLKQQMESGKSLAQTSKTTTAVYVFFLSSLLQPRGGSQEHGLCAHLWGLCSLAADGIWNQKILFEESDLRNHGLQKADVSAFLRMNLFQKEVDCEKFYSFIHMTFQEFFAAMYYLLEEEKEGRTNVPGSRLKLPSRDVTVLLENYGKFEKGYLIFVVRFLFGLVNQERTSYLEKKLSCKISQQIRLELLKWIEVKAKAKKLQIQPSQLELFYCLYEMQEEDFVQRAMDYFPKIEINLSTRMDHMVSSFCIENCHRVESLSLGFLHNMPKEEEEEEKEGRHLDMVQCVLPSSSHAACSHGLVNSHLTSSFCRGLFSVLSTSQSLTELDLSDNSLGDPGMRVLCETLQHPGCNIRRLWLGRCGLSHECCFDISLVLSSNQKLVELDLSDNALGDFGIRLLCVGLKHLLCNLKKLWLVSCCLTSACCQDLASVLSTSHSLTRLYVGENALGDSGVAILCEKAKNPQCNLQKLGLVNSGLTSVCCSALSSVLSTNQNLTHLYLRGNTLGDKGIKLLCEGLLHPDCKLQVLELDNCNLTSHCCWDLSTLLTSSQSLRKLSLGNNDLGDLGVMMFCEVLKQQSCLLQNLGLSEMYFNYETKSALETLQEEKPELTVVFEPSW
Procedure Details: Human PBMC NLRP3 Assay (LPS priming, ATP stimulation, cytokine measurement)
Format: cell-based
Test Context: human PBMC, LPS priming, ATP stimulation; read-out: PBMC IC50
pIC50: −log10 of the molar value.
Recorded Metric: pIC50

- Compound: "Cc1ccc(C2(C(=O)N[C@@H]3C[C@H](C)CN(c4nnn[nH]4)C3)CC2)c(O)c1 [Compound 20A]"
  pIC50: "7.00 to 8.00"

Q. # lookup: pIC50 of C[C@H]1CC[C@@H](NC(=O)C2(c3ccc(C(F)(F)F)cc3O)CC2)CN(c2nnn[nH]2)C1 [89A*]
A. > 8.00

Q. What about this compound? C[C@@H]1CCN(c2nnn[nH]2)C[C@H](NC(=O)C2(c3ccc(OC(F)F)cc3)CC2)C1 (single isomer, unassigned) [58A*]
A. 7.00 to 8.00
